- protocol: Cell viability (CCK-8)
- Assay type: cell-based, murine
- reported-conditions: mouse, B16F10 melanoma cells; 400 µM, 48 h
- Method: Referring to our previous methods. […] Measurement of cell viability was determined according to our previous procedure. In brief, cells were seeded into 96-well plates at a density of 1 × 10^4 cells/well and incubated for 24 h. Then, the culture medium was replaced with complete medium containing compound and further incubated at 37 °C for 48 h. […] Followed by another 1 h incubation, the absorbance at 450 nm was measured. […] The cell viability was expressed as a percentage of the control.
result-type: viability at 48 h, 400 µM (%)
Numbers only, in %.

// viability at 48 h, 400 µM value for O=c1cc(CO)occ1O : 90

====

- protocol: Cell viability (CCK-8)
- Assay type: cell-based, murine
- reported-conditions: mouse, B16F10 melanoma cells; 50 µM, 48 h
result-type: viability at 48 h, 50 µM (%)
Answers are plain numbers, in %.

// viability at 48 h, 50 µM value for O=c1cc(CO)occ1O [kojic acid] : 101

====

- measured-on: MTYR (mushroom TYR) (Agaricus bisporus, UniProt C7FF04)
- Sequence (C7FF04 1-392): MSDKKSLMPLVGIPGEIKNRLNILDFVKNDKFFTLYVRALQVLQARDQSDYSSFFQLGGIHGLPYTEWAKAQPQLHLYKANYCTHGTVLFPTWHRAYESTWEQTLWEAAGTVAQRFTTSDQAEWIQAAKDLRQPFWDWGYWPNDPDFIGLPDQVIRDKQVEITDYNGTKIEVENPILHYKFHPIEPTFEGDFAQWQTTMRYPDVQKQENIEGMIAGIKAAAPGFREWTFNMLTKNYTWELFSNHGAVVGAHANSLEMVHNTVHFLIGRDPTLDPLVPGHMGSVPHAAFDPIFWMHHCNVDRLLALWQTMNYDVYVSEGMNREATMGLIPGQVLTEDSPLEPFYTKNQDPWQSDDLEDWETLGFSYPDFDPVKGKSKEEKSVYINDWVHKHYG
- Sequence (G1K3P4 1-150 partner): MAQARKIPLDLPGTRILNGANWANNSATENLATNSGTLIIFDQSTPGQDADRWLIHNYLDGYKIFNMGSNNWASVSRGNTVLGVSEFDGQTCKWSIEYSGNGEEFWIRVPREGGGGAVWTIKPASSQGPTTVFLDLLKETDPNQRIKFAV
result-type: IC50 (µM)
One number for each entry, in µM.

// IC50 value for O=C(O[C@@H]1Cc2c(O)cc(O)cc2O[C@@H]1c1cc(O)c(O)c(O)c1)c1cc(O)c(O)c(O)c1 [EGCG, Epigallocatechin gallate] : 1420

====

- Tested on: ATYR (crude TYR extracted from apple)
- protocol: ATYR directly inhibitory activity
- Format: biochemical
- reported-conditions: low concentration (12.5–400 µM) of kojic acid; read-out: EC50, promotion of ATYR activity
- Description: The preparation of fresh-cut apple slices was the same as in Section 4.4. The preparation of crude ATYR was carried out by reference and slightly adjusted. […] Finally, these apple slices were used to extract ATYR. […] After the supernatant was divided, it was quick-frozen with liquid nitrogen, and then stored in the refrigerator at −80 °C. […] Once the substrate was added in reaction system, the formation of dopachrome was immediately measured at 475 nm for 30 min at 1 min intervals. […]
result-type: pEC50
Answers are plain numbers, as −log10 of the molar value.

// pEC50 value for O=c1cc(CO)occ1O : 4.02

====

- protocol: Cell viability (CCK-8)
- Assay type: cell-based, murine
- reported-conditions: mouse, B16F10 melanoma cells; 100 µM, 48 h
result-type: viability at 48 h, 100 µM (%)
One number for each entry, in %.

// viability at 48 h, 100 µM value for O=c1cc(CO)occ1O : 95

====

- protocol: Cell viability (CCK-8)
- Type: cell-based, murine
- reported-conditions: mouse, B16F10 melanoma cells; 200 µM, 48 h
result-type: viability at 48 h, 200 µM
Include the unit right after the number.

// viability at 48 h, 200 µM value for O=c1cc(CO)occ1O : 90%

Where these numbers come from: paper PMC10093845
